tested on: PPARg:RXRa 30nM:10nM, anti-RXR (NR concentration 30 nM, RXRa partner concentration 10 nM); test: PBM binding z-score (relative to random genomic background probes); higher = stronger binding; sequences stand for … in GC…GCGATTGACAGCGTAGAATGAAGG
REPORTED ENDPOINT: PBM binding z-score

>>> print(df.to_string())
                      residue_sequence    reported_endpoint  reported_measurement
 0  CCGACTTGGGCAAGGTTACCATAACGCACAGCCA  PBM binding z-score                -0.317
 1  CGAACTAGGCCAAGGACAGTGAATCTCCGCACGC  PBM binding z-score               -0.0892
 2  CTTCCAAGGTGAACAAGGTCGTTGATTACTATTC  PBM binding z-score                0.0258
 3  GCTCGGAGGACAAGGTCATAGCTTTGTCCGTAGA  PBM binding z-score                 0.472
 4  CGAACGAGTGCATGAGTTGATAGCAAATGCCGAT  PBM binding z-score              -0.00177
 5  GCTCGGAGAACAAGGTCAGAGCTTTGTCCGTAGA  PBM binding z-score                -0.425
 6  TCATATACGTAAAAGGTGAAAGTCGGTGTGGTAA  PBM binding z-score                   4.6
 7  CCGACAGGGGCAAGGTTACCATAACGCACAGCCA  PBM binding z-score                0.0629
 8  TCTTGTAGTTCAATAGAGGTTAAGAAAGTGCGCT  PBM binding z-score                  2.94
 9  CCCGCTAGGTCAATGGTCAGCTAAAGCAGCTCGC  PBM binding z-score                  3.41
10  TGACCAAGGTGAAGGTCGTTGATCCCTCTGTAGA  PBM binding z-score                 0.953
11  CCTAGCAGGCCAGGGTCGCTCAAGCATTTCGCTT  PBM binding z-score                 -1.11
12  CCTATTAGTTGACCATAAGAGCAACCGAAGCTCG  PBM binding z-score                 0.292
13  TCATATAGGTAAACAGGTGAAATTCCGTAAGTTA  PBM binding z-score                  4.19
14  GCATATAGGAAATACAAGGTGAAAGTCCGATTGT  PBM binding z-score               -0.0341
15  GCTCGGAGGACTAGGTCAGAGCTTTGTCCGTAGA  PBM binding z-score                 -1.04

---

system: LXRa homodimer (NR concentration 270 nM); test: PBM binding z-score (relative to random genomic background probes); higher = stronger binding; sequences stand for … in GC…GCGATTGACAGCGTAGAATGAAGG
REPORTED ENDPOINT: PBM binding z-score

>>> df
                      residue_sequence  reported_measurement
 0  GCGACTGAGGCAAAGCAGGTTACCATAAGGTTGG                -0.444
 1  ACAGACAGGTGATGAAGGTAACTAAGGCTATCAT                -0.177
 2  TCTTGTAGATCAACAGGAGGTTTAGAAAGATCGA                -0.342
 3  ACTATTAGTTGACTTAGGGCAACCAATACGACGC                 0.224
 4  CTACCACGGTGAACAAGGTCGTTGATTACTATTC                 0.301
 5  AGTCAAAGTTCATCTAGGTAGCGTAAGATATGCT                  4.76
 6  TAGCCTAGGTCAGATCTGGCCAGTATACGCTATA                -0.379
 7  CCTTACGGGTCAAGGCTATAGCACGGGTGGTACG                -0.261
 8  GCTAGTTGGTCATTAAAAGGTCACACACCGGTCG                  6.37
 9  ATATGTTGGTTAGCTGGGGTCATTCAGACTAGGC                  2.39
10  CGTCCAAGGTCAAAGGTCAGTGCAGAGATGACGG                  3.67
11  ATATATAGGTTAGCTGGGGTCATTCAGACTAGGC                  3.51

---

tested on: VDR homodimer (NR concentration 270 nM); assay: PBM binding z-score (relative to random genomic background probes); higher = stronger binding; sequences stand for … in GC…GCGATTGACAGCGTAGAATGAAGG
Kind request: treat 0.9 as inclusive, so PBM binding z-score at 0.9 or higher is criterion met, anything lower is criterion not met.

>>> print(df.to_string())
                      residue_sequence   class_assignment
 0  ATATGTAGGTTAGCTGGGATCATTCAGACTAGGC  criterion not met
 1  CCTCGGAGGACAACTGGAGGTCAGAGCTGCCAGA      criterion met
 2  GCATATAGGTAATACAAGGTGAATGTCCGATTGT  criterion not met
 3  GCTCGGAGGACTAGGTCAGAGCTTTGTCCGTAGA  criterion not met
 4  AGAATGAGGTTATTAAGATAAGGGAATTGCGGTC  criterion not met
 5  ACAGACAGGTGAGTGAAGGTAAGTCAGCTGGACG  criterion not met
 6  TCTTGTAGATCACCAGGTTAAGAAAGCTGGCCAA  criterion not met
 7  ACTAGTTGGTCAGCTGAGGTCACACATAATTCGG      criterion met
 8  CAAACTAGGTAAAGGTCAAAGTCGGTTTGTGCCA      criterion met
 9  ACAGACAGGTGGGTGAAGGTAACTCAGCTGGACG  criterion not met
10  CACGAAAGGTCGGTTGAGGTGAGTATACGGATAA      criterion met
11  GCGACTGGGGCATCATCAGGTTACCATAACTTAA  criterion not met
12  TCTTGTAGATCAAGCAGGGTAAGAAAGCCTGAGT  criterion not met

---

system: LXRa:RXRa (NR concentration 270 nM, RXRa partner concentration 90 nM); experiment: PBM binding z-score (relative to random genomic background probes); higher = stronger binding; sequences stand for … in GC…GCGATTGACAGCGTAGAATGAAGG
Kind request: treat 2 as inclusive, so PBM binding z-score at 2 or higher is Y, anything lower is N.

In [3]: df
Out[3]:
                      residue_sequence  class_assignment
 0  GGAACGAGCGCATTCGAGTTGATAGCATGGCGAT                 N
 1  AGAACTAGGGCACGCTGAGTTGATAGCAGAGTAG                 N
 2  ACAGACAGGCGAGTGAAGGTAACTCAGCTGGACG                 N
 3  AGAACGAGGGCACGCTGAGTTGATACCAGAGTAG                 N
 4  TAGCCTAGGTCATGCGCGCCAGTATAGTGTCGGC                 Y
 5  CGAACTAGGTCTTTGACAGGACAGTGAATAGTAA                 N
 6  CCTCCAAGGTCAAAGGTCAGTGAAGAGATGACGG                 Y
 7  TCATATAGCTAATACAGGTGAAAGTCGGCATCTA                 N
 8  CCTCCTGGGCCAAGGTCATTGATCAGTCAAAGCA                 Y
 9  ATATGTAGGTTAAATCCGGGTCATTCAGGCTATG                 Y
10  ATCGAAAGGTCGACGAGGTGATTATACACCGTTT                 Y
11  CCTCGGAGGACAACGGGAGGTCAGAGCTGCCAGA                 Y
12  TCGAGTAGGTTAGTCGGGGCATTCGGCCAACATA                 N
13  CTCGAAAGGTCGGTTGAGGTGTGTATACGGATAA                 N
14  CAAACTAGGTCAAAGGTTAAAGTCGAGCCAACCA                 Y
15  TCTTGTAAATCAAGCAGGTTAAGAAAGCCTGAGT                 N
16  CCTGCTAGGTCATGTTCAGCTAATCTACAGTATG                 Y
17  AGAACGAGGGTACGCTGAGTTGATAGCAGAGTAG                 N
18  ATCGAAAGGTCGAGGTGAGAATAGAGAAAGGGAA                 Y
19  GCTAGTTGGTCAGTAAAAGGTCACCCACCGGTCG                 Y
20  TCTGCTAGATCAACGATGGTCAGCTAATCTGCTA                 N
